pIC50: −log10 of the molar value.
# literature pull: Glutathione S-transferase Mu 2 (Homo sapiens, UniProt P28161) pIC50
# Sequence (P28161 whole entry): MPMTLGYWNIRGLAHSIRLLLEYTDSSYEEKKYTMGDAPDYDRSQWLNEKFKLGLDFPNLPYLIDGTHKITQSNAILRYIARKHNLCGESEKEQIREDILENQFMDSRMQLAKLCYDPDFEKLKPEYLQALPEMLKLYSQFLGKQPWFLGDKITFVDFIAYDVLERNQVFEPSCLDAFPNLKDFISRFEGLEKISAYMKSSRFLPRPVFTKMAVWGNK
MEASURED PARAMETER: pIC50

In [3]: df
Out[3]:
                                    compound  measured_parameter  readout_number
 0  Cc1ccc(NC(=O)CCC(=O)OCCCCCCSc2ccc([N+](=O)[O-])c3nonc23)cc1               pIC50            6.41
 1  O=C(O)C(Cc1ccc(Cl)cc1)Cn1c(-c2ccc(Cl)s2)nc2ccc(-c3ccccc3-c3nn[nH]n3)cc2c1=O (stereo unspecified)               pIC50            5.69
 2  O=C(CCc1ccc(Sc2ccc([N+](=O)[O-])c3nonc23)cc1)NOCc1ccccc1               pIC50            7.70
 3  COc1ccc(NC(=O)CCC(=O)OCCCCCCSc2ccc([N+](=O)[O-])c3nonc23)cc1               pIC50            6.89
 4  O=c1c2cc(-c3ccccc3-c3nn[nH]n3)ccc2nc(-c2ccc(Cl)s2)n1Cc1ccc(Cl)cc1               pIC50            5.39
 5  CONC(=O)c1ccc(CCSc2ccc([N+](=O)[O-])c3nonc23)cc1               pIC50            7.52
 6  O=c1c2cc(-c3ccccc3-c3nn[nH]n3)ccc2nc(-c2cccs2)n1Cc1ccc(Cl)cc1               pIC50            5.21
 7  O=C(CCC(=O)OCCCCCCSc1ccc([N+](=O)[O-])c2nonc12)NCCN1CCCC1               pIC50            6.70
 8  COc1cc(/C=C/C(=O)CC(=O)/C=C/c2ccc(O)c(OC)c2)ccc1O               pIC50            5.74
 9  O=C(CCC(=O)OCCCCCCSc1ccc([N+](=O)[O-])c2nonc12)Nc1ccccc1Cl               pIC50            6.48
10  O=C(CCC(=O)N1CCOCC1)OCCCCCCSc1ccc([N+](=O)[O-])c2nonc12               pIC50            6.77

###

Endpoint summary: IC50, system: Glutathione S-transferase Mu 2 (Homo sapiens, UniProt P28161), multiple sources combined.
MEASURED PARAMETER: IC50 (nM)

In [3]: df
Out[3]:
                                   compound  measured_parameter  unit_descriptor  limit_operator  readout_number
0  O=C(CCC(=O)OCCCCCCSc1ccc([N+](=O)[O-])c2nonc12)NCCN1CCOCC1                IC50               nM               =             100
1  COc1ccccc1NC(=O)CCC(=O)OCCCCCCSc1ccc([N+](=O)[O-])c2nonc12                IC50               nM               =             280
2  CCN(CC)CCCNC(=O)CCC(=O)OCCCCCCSc1ccc([N+](=O)[O-])c2nonc12                IC50               nM               =             440
3  O=[N+]([O-])c1ccc(SCC(O)CO)c2nonc12 (centres undefined)                IC50               nM               =              70
4  O=C(O)c1ccc(Sc2ccc([N+](=O)[O-])c3nonc23)cc1                IC50               nM               =             230
5  O=C(CCC(=O)OCCCCCCSc1ccc([N+](=O)[O-])c2nonc12)Nc1ccc(F)c(Cl)c1                IC50               nM               =             470
6      C=C(CC)C(=O)c1ccc(OCC(=O)O)c(Cl)c1Cl                IC50               nM               >           20000
7  O=C(O)CCn1c(-c2ccc(Cl)s2)nc2ccc(-c3ccccc3-c3nn[nH]n3)cc2c1=O                IC50               nM               =            2400
8  O=c1c2cc(-c3ccccc3-c3nn[nH]n3)ccc2nc(-c2ccc(Cl)s2)n1Cc1ccccc1                IC50               nM               =            3380
